Molecular target: recombinant human ETB R (Homo sapiens, UniProt P24530)
Construct: expressed in transfected cells; host or cells: CHO-K1 cells
Assay type: binding
Details: [125I]-ET-1 40 pM, 2 hours at 37° C.; read-out: HERBAB IC50
Method: The compounds of Formula I are valuable antagonists of endothelin. The following cultured cells were used in binding experiments: rabbit renal artery vascular smooth muscle cells (ERBA-A), Ltk-cells expressing recombinant human ETA R (HERBA-A), and CHO-K1 cells expressing recombinant human ETB R (HERBA-B). Membranes were prepared from cultured cells by lysing cells in cold lysis buffer (5 mM HEPES, 2 mM EDTA, pH 7.4) and homogenizing with a Dounce "A" homogenizer. […]
pIC50: −log10 of the molar value.
value.kind: pIC50

Solved cases (5 shown):
structure | measured.value
O=C(O)C1=C(Sc2ccc3c(c2)OCO3)c2ccccc2S(=O)(=O)N1Cc1ccc2c(c1)OCO2 | 5.27
COc1cc2c(cc1OC)S(=O)(=O)N(Cc1ccc3c(c1)OCO3)C(C(=O)O)=C2Sc1ccc2c(c1)OCO2 | 5.46
O=C(O)C1=C(Sc2ccc3c(c2)OCO3)c2ccccc2S(=O)(=O)N1Cc1cc2c(cc1Cl)OCO2 | 4.66
O=C(O)C1=C(Sc2ccc3c(c2)OCO3)c2ccccc2S(=O)(=O)N1Cc1ccccc1 | 4.92
COc1cc(CN2C(C(=O)O)=C(c3ccc4c(c3)OCO4)c3ccccc3S2(=O)=O)cc(OC)c1OC | 5.33

A = O=C(O)C1=C(c2ccc3c(c2)OCO3)c2ccccc2S(=O)(=O)N1Cc1ccccc1
B = COc1cccc(SC2=C(C(=O)O)N(Cc3ccc4c(c3)OCO4)S(=O)(=O)c3ccccc32)c1
C = CN1C(C(=O)O)=C(Sc2ccc3c(c2)OCO3)c2ccccc2S1(=O)=O
D = O=C(O)C1=C(c2ccc3c(c2)OCO3)c2ccccc2S(=O)(=O)N1Cc1cc2c(cc1Cl)OCO2
Ask | # desc sort on pIC50 across 4 compounds Put the labels in the requested order and write them down.
Reply | D, A, B, C

###

Target: recombinant human ETB R (Homo sapiens, UniProt P24530)
Sequence (P24530 27-442): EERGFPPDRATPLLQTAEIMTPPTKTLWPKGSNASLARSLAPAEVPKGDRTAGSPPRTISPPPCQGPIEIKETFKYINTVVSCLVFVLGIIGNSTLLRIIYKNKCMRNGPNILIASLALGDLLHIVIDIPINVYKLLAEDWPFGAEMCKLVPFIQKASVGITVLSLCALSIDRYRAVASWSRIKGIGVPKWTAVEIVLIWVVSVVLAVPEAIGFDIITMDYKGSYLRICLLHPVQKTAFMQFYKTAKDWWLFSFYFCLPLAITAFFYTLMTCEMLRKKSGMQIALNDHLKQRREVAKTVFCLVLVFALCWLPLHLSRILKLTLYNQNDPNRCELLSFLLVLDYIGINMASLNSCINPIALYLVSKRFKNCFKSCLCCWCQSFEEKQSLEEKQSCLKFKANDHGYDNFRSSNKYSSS
Conditions: [125I]-ET-1 40 pM, 2 hours at 37° C.; read-out: HERBAB IC50
pIC50: −log10 of the molar value.
value.kind: pIC50

structure | pIC50
COc1ccc(C2=C(C(=O)O)N(Cc3ccc4c(c3)OCO4)S(=O)(=O)c3ccccc32)cc1OC | 5.44
COc1ccc(CN2C(C(=O)O)=C(c3ccc4c(c3)OCO4)c3ccccc3S2(=O)=O)c(OCC(=O)O)c1 | 5.31

A = COc1cc(CN2C(C(=O)O)=C(c3ccc4c(c3)OCO4)c3ccccc3S2(=O)=O)cc2c1OCO2
B = COc1cc(CN2C(C(=O)O)=C(Sc3ccc4c(c3)OCO4)c3ccccc3S2(=O)=O)cc(OC)c1OC
Ask | Lab notebook, comparison: A versus B , higher pIC50 goes to which? Mark your selection by writing its label.
Reply | A
